Target: T1, Human CD3eg linker (human)
T1 construct: Single chain: epsilon and gamma subunits of human CD3 joined by a 29-mer linker, Flag-tag at the C-terminus; also called recombinant human CD3
T1 chain: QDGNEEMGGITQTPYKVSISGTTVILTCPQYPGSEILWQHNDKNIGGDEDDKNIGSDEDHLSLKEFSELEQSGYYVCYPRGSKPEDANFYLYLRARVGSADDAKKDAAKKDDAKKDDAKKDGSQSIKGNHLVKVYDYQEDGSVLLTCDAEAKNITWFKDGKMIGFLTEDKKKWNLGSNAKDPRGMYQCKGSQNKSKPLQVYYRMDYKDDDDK
Experiment: Biacore SPR, vs template H183/L072
Reported Endpoint: fold change of affinity (fold)
Please respond with the number in fold and leave the unit unwritten.

>  <Binder>
H183/L072 VH I51G (antibody, name in Kabat numbering, V domains shown) VH: QVQLVESGGGLVQPGRSLRLSCAASGFTFSNAWMHWVRQAPGKGLEWVAQGKDKGNAYAAYYAPSVKGRFTISRDDSKNSIYLQMNSLKTEDTAVYYCHYVHYASASTVLPAFGVDAWGQGTTVTVSS VL: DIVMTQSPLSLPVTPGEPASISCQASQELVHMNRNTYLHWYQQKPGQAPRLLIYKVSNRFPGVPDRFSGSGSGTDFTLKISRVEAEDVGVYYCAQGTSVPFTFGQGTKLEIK

>  <Reported Endpoint>
fold change of affinity

>  <Units Text>
fold

>  <Observed Measurement>
0

$$$$
>  <Binder>
H183/L072 VH M34E (antibody, name in Kabat numbering, V domains shown) VH: QVQLVESGGGLVQPGRSLRLSCAASGFTFSNAWEHWVRQAPGKGLEWVAQIKDKGNAYAAYYAPSVKGRFTISRDDSKNSIYLQMNSLKTEDTAVYYCHYVHYASASTVLPAFGVDAWGQGTTVTVSS VL: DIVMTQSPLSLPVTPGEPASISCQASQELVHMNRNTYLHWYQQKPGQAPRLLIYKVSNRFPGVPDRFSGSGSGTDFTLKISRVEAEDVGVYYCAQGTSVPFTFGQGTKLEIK

>  <Reported Endpoint>
fold change of affinity

>  <Units Text>
fold

>  <Observed Measurement>
0

$$$$
>  <Binder>
H183/L072 VH A54P (antibody, name in Kabat numbering, V domains shown) VH: QVQLVESGGGLVQPGRSLRLSCAASGFTFSNAWMHWVRQAPGKGLEWVAQIKDKGNPYAAYYAPSVKGRFTISRDDSKNSIYLQMNSLKTEDTAVYYCHYVHYASASTVLPAFGVDAWGQGTTVTVSS VL: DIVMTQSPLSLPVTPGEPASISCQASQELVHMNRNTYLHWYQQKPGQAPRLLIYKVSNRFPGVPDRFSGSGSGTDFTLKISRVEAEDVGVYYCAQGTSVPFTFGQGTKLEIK

>  <Reported Endpoint>
fold change of affinity

>  <Units Text>
fold

>  <Observed Measurement>
0

$$$$
>  <Binder>
H183/L072 VH K52F (antibody, name in Kabat numbering, V domains shown) VH: QVQLVESGGGLVQPGRSLRLSCAASGFTFSNAWMHWVRQAPGKGLEWVAQIFDKGNAYAAYYAPSVKGRFTISRDDSKNSIYLQMNSLKTEDTAVYYCHYVHYASASTVLPAFGVDAWGQGTTVTVSS VL: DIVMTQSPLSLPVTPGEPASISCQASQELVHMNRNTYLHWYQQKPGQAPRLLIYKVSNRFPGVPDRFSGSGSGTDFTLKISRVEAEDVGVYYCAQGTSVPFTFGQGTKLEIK

>  <Reported Endpoint>
fold change of affinity

>  <Units Text>
fold

>  <Observed Measurement>
0

$$$$
>  <Binder>
H183/L072 VH F27D (antibody, name in Kabat numbering, V domains shown) VH: QVQLVESGGGLVQPGRSLRLSCAASGDTFSNAWMHWVRQAPGKGLEWVAQIKDKGNAYAAYYAPSVKGRFTISRDDSKNSIYLQMNSLKTEDTAVYYCHYVHYASASTVLPAFGVDAWGQGTTVTVSS VL: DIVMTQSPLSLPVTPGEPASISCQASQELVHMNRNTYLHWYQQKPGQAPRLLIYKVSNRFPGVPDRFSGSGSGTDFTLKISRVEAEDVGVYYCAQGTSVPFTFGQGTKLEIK

>  <Reported Endpoint>
fold change of affinity

>  <Units Text>
fold

>  <Observed Measurement>
0

$$$$
>  <Binder>
H183/L072 VH M34F (antibody, name in Kabat numbering, V domains shown) VH: QVQLVESGGGLVQPGRSLRLSCAASGFTFSNAWFHWVRQAPGKGLEWVAQIKDKGNAYAAYYAPSVKGRFTISRDDSKNSIYLQMNSLKTEDTAVYYCHYVHYASASTVLPAFGVDAWGQGTTVTVSS VL: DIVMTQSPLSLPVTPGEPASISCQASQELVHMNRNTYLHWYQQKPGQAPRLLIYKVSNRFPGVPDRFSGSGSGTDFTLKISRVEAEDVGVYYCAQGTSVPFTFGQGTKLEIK

>  <Reported Endpoint>
fold change of affinity

>  <Units Text>
fold

>  <Observed Measurement>
0.1

$$$$

## Task Query (binder): H183/L072 VH Q50Y (antibody, name in Kabat numbering, V domains shown) VH: QVQLVESGGGLVQPGRSLRLSCAASGFTFSNAWMHWVRQAPGKGLEWVAYIKDKGNAYAAYYAPSVKGRFTISRDDSKNSIYLQMNSLKTEDTAVYYCHYVHYASASTVLPAFGVDAWGQGTTVTVSS VL: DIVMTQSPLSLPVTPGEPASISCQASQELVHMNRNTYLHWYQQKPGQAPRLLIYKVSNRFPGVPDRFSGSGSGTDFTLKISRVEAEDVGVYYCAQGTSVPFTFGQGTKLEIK ; field requested: fold change of affinity
## Result 0.9

## Task Query (binder): H183/L072 VH N31A (antibody, name in Kabat numbering, V domains shown) VH: QVQLVESGGGLVQPGRSLRLSCAASGFTFSAAWMHWVRQAPGKGLEWVAQIKDKGNAYAAYYAPSVKGRFTISRDDSKNSIYLQMNSLKTEDTAVYYCHYVHYASASTVLPAFGVDAWGQGTTVTVSS VL: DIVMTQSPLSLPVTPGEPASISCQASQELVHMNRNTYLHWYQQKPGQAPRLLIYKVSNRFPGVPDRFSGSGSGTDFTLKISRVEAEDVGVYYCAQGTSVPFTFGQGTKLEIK ; field requested: fold change of affinity
## Result 0.4

## Task Query (binder): H183/L072 VH S30N (antibody, name in Kabat numbering, V domains shown) VH: QVQLVESGGGLVQPGRSLRLSCAASGFTFNNAWMHWVRQAPGKGLEWVAQIKDKGNAYAAYYAPSVKGRFTISRDDSKNSIYLQMNSLKTEDTAVYYCHYVHYASASTVLPAFGVDAWGQGTTVTVSS VL: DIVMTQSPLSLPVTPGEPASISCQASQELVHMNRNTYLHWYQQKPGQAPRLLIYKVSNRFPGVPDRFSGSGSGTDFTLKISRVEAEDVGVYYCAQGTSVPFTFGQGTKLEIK ; field requested: fold change of affinity
## Result 0.7

## Task Query (binder): H183/L072 VH T28R (antibody, name in Kabat numbering, V domains shown) VH: QVQLVESGGGLVQPGRSLRLSCAASGFRFSNAWMHWVRQAPGKGLEWVAQIKDKGNAYAAYYAPSVKGRFTISRDDSKNSIYLQMNSLKTEDTAVYYCHYVHYASASTVLPAFGVDAWGQGTTVTVSS VL: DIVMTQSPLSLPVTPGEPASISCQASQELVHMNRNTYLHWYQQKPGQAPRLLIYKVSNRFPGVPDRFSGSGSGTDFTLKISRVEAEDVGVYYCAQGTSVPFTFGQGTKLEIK ; field requested: fold change of affinity
## Result 2.9
